assay_target: CD33 (Sino Biological, Cat #12238-H08H) (UniProt P20138 18-259)
Sequence (P20138 18-259 limits assumed): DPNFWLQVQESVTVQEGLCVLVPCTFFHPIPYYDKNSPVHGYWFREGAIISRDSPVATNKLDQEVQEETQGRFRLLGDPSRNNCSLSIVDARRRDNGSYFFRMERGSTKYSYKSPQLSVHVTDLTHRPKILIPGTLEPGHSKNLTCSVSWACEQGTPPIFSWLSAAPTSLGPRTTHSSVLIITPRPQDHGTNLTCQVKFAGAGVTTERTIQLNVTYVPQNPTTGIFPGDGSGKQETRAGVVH
test_name: BLI, IgG captured on anti-human Fc sensor, 50 nM CD33, pH 7.4 vs pH 5.4
metric_name: binding result

- binder: "MYT1225 (antibody, V domains shown, IgG; IMGN779 VH variant #13 (Y52H)) VH: QVQLQQPGAEVVKPGASVKMSCKASGYTFTSYYIHWIKQTPGQGLEWVGVIHPGNDDISYNQKFQGKATLTADKSSTTAYMQLSSLTSEDSAVYYCAREVRLRYFDVWGQGTTVTVSS VL: EIVLTQSPGSLAVSPGERVTMSCKSSQSVFFSSSQKNYLAWYQQIPGQSPRLLIYWASTRESGVPDRFTGSGSGTDFTLTISSVQPEDLAIYYCHQYLSSRTFGQGTKLEIK"
  recorded_result: "binds"
- binder: "MYT1617 (antibody, V domains shown, IgG; gemtuzumab VL variant #28 (V98H)) VH: EVQLVQSGAEVKKPGSSVKVSCKASGYTITDSNIHWVRQAPGQSLEWIGYIYPYNGGTDYNQKFKNRATLTVDNPTNTAYMELSSLRSEDTDFYYCVNGNPWLAYWGQGTLVTVSS VL: DIQLTQSPSTLSASVGDRVTITCRASESLDNYGIRFLTWFQQKPGKAPKLLMYAASNQGSGVPSRFSGSGSGTEFTLTISSLQPDDFATYYCQQTKEHPWSFGQGTKVEVK"
  recorded_result: "binds"

Each recorded value in this set is attributed to patent US20220324969A1.
